Test: cell viability in Huh7 cells, primary screen, cytotoxicity control for HCV replication inhibitor project, CellTiter-Glo luminescence, basal, 48 h (AID 1143);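 note: Huh7 hepatoma cells carrying a hepatitis C replication reporter with no stimulus; test concentration not given here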
Details: Huh7 HCV replicon, higher = more signal, called active from +8 up or from −8 down
measured_quantity: z-score
Numbers only.

I would be grateful if you could provide z-score for each of the following entries.
1. CO[C@H]1COC(=O)CC=C[C@H](C)[C@@H](OC)COC(=O)[C@@H](C)NC(=O)CC=C[C@@H]1C
2. CC(C)(C)N1C(=O)[C@H]2[C@H]3[C@H](O)[C@H](O)CC(=O)[C@H]3CC[C@H]2C1=O
3. CC(C)=CCCC(C)=CCON=C1C[C@@H](O)[C@@H](O)[C@@H]2[C@@H]3C(=O)N(C4CCCCC4)C(=O)[C@@H]3CC[C@@H]12

a:
-1.42
-1.06
-0.592

I would be grateful if you could provide z-score for each of the following entries.
1. C[C@@H]1NC(=O)[C@@H](C)COC(=O)[C@H](C)NC(=O)[C@@H](C)COC1=O
2. O=C1[C@H]2[C@H]3[C@H](O)[C@H](O)CC(=NOC[C@@H](O)COCc4ccco4)[C@@H]3CC[C@H]2C(=O)N1C[C@@H]1CCCO1
3. Cc1cc2c(nc1C)CCCN2CC(O)CN1CCCc2nc(C)c(C)cc21
4. C=CC1=C[C@H](O)[C@@H]2O[C@@H]2C12OCCCO2

a:
1. -3.21
2. 0.0304
3. 0.135
4. 0.17
